These data points were gathered from a melting point compilation (Tetko et al.; mined from patent text by program, amines drawn as free bases though some values may be those of a salt).

Listed next: entries and their corresponding melting point.

Oc1cc(O)cc(-c2ccccc2)c1: 157 to 158 °C

Provide one value: measured melting point of O=C(CCC#Cc1ccccn1)Nc1ccc(Cl)cc1 110 to 111 °C

Identify the reported melting point for the following entry. C1=CCN(C(c2ccccc2)c2ccccc2)C1 90 to 91 °C

Determine its reported melting point: CN1CCN(c2ncccc2OC2CCN(c3ccc(C4CCOCC4)cc3)C2=O)CC1 (stereo not drawn) 219 to 248 °C

Output melting point of Cc1cc(C)cc(N2CCN(Cc3ncn(C(c4ccccc4)(c4ccccc4)c4ccccc4)c3C)C2=O)c1 199 to 202 °C

Specify reported melting point for the compound shown: CN1CCC(c2cccc3ccc(C(=O)NCCCc4ccc(Cl)cc4)cc23)CC1 132 to 134 °C

Tell me measured melting point for COc1cc(OC)nc(-n2c(SC)nc3ccccc32)n1 please. 135 to 137 °C

# return recorded melting point for input O=C1CCN(Cc2ccccc2)C(=O)C1=C1SC=CS1 122 to 124 °C

###

experimental.readout: melting point

# example entries with known answers
CSC(=S)NN=Cc1nc[nH]c1C: 180 °C
CC1NC(=O)OC1c1ccc(C(F)(F)F)cc1 (configuration not stated): 158 to 159 °C
CCCCCCCCN[C@@H]1Cc2cc(OC)c(OC)cc2[C@H]1O (relative stereo): 133 to 135 °C

// fetch melting point given entry O=C(Cc1ccccc1)c1ccc(OCC(F)(F)F)cc1 108 °C

Give the value of melting point reported for the following: CC(C)(C)c1nn(-c2cc(O)c(Cl)cc2Cl)c(=O)s1 130 to 132 °C

###

Collected melting point values appear next to each entry.

Guide cases for melting point, answers given:
COCCOCCOCCOc1cc([N+](=O)[O-])c([N+](=O)[O-])cc1OCCOCCOCCOC: 43 to 45 °C
Cc1ccc(C(O)(c2ccc3c(c2)c(-c2cccc(Cl)c2)nc2nnnn23)c2cncn2C)cc1 (centres undefined): 165 °C
COc1ccc(N2C(=O)c3cccc(OC)c3NC2c2ccc(OCCCl)cc2)cc1 (centres undefined): 122 to 124 °C
N#Cc1cccc(NC(=O)NCc2cccc3c2C(=O)N(C2CCC(=O)NC2=O)C3=O)c1 (centres undefined): 228 to 230 °C
O=C(Nc1c[nH]nc1C(=O)NCCCO)c1ccccn1: 209 to 211 °C

Fill in melting point for record COC(=O)C1=C(C)Nc2ccccc2SC1c1ccccc1C(F)(F)F (centres undefined) 165 to 166 °C

Give melting point for O=Cc1ccc(-c2ccccc2)c(Cl)c1 70 to 72 °C

Supply recorded melting point for CCC(CC)n1cc(Br)nc(N2CCc3cc(OC)cc(Br)c32)c1=O here. 133 to 135 °C

Name the recorded melting point of the molecule listed here: COC(=O)C(CC(=O)O)Cc1ccc(OC)c(OC)c1 (centres undefined) 104 to 107 °C

Specify melting point for COc1ccc2c(c1)CN(Cc1ccccc1)CC(=O)N2 and stop. 134 °C

State its melting point for this molecule: COc1ccc(S(=O)(=O)N(CC(N)=O)c2ccc(Cl)cc2C(O)c2cc(Cl)ccc2Cl)cc1OC (centres undefined) 132 °C

Note melting point for the molecule shown: CNC(=NO)Nc1ccccc1 95 to 96 °C

Annotate the molecule C[C@H]1Oc2ccc(Br)cc2C(=O)N2CCCC[C@@H]12 (racemic) with its measured melting point. 105 to 106 °C

Give the reported value of melting point for this record: Oc1cccnc1Sc1cccc(Br)c1 125 to 126 °C

###

experimental.readout: melting point

C=CCCCCCCOc1ccc(CCC(N)(CO)CO)cc1: 95 to 98 °C
COC(=O)[C@H](Cc1ccc(OCCNC(=O)OC(C)(C)C)cc1)NC(=O)OCc1ccccc1: 89 to 91 °C
C#CCc1c(Cl)nc(NC=O)nc1Cl: 127 to 128 °C
NC(=S)Nc1ccc(Cl)c(Cl)c1Cl: 115 to 117 °C
CON=C(C)C1=CCCN(O)C1: 94 to 96 °C
CC(C)c1nccn1N=Cc1ccccc1: 65 to 66 °C
CCOC(=O)N1CCC2=C(C1)SCC2(NC(=O)CN)C(=O)c1ccccc1Cl (stereo not drawn): 95 to 97 °C

Look up and state reported melting point for CC(=O)SCC(Cc1ccccc1)C(=O)NN1CCSCC1 (stereo not drawn) 138 °C

###

Examples of compounds with documented melting point follow.

Worked cases, melting point given:
O=C(Nc1ccc(CN2C(=O)CNC2=O)cc1)c1cc(=O)c2ccccc2o1: 258 to 261 °C
O=C(O)C(=NO)c1ccc(OCCOc2ccc3ccccc3c2)cc1: 178 to 179 °C

Proceeding to the next compound to report its melting point.
Return melting point for the following compound: Cn1cc(-c2ccc3ncn(Cc4ccc5ncccc5c4)c3n2)cn1 150 to 152 °C

###

experimental.readout: melting point

Take a look at these entries with their results.
CCCc1sc2nc(CCl)c(C(=O)OCC)c(-c3ccc(Cl)cc3)c2c1C: 95 to 96 °C
OC(CNC1CC1)c1ccc(Br)cc1 (centres undefined): 105 to 107 °C
CN(c1cc(OCCCS(C)(=O)=O)cc2cc(C3=NCC(CN4CCOCC4)S3)[nH]c12)S(=O)(=O)c1ccccn1 (centres undefined): 168 to 169 °C

Please indicate melting point recorded for O=C(Cn1ccnc1[N+](=O)[O-])NCC(F)(F)C(F)(F)F 136 to 137 °C

###

Listed here: items and their measured melting point.

Below are worked cases with known answers.
C#CCNC(=O)c1cccc(F)c1Nc1nc(Nc2ccc3c(c2)N(C(C)=O)CCCC3)ncc1Cl: 210 to 214 °C
N#Cc1ccc(F)cc1-c1ccc(C(F)(F)F)cc1: 106 to 107 °C
Cc1ccc(Oc2ccccc2C(=N)NO)c(O)c1: 85 to 87 °C
Nc1c(-c2cc(Cl)ccc2O)c2c(C(F)(F)F)cc(C(F)(F)F)cc2[nH]c1=O: 230 to 233 °C
CCc1cc(OCc2ccc(-c3ccccc3-c3nnnn3-c3ccc([N+](=O)[O-])cc3)cc2)c2c(n1)CCCC2: 205 to 207 °C

Give a short answer stating reported melting point for O=c1[nH][nH]c(=O)n1-c1cc(Cl)cc(Cl)c1 . 260 °C

Give reported melting point value for CSc1nnc(Cc2cccnc2)c(=O)[nH]1 215 to 216 °C

Assign melting point to the following record: CN(C1CCN(Cc2cccs2)CC1)S(=O)(=O)c1ccc(Nc2nccc(Nc3ccc(F)cc3)n2)cc1 175 to 176 °C

State its melting point: O=Cc1cc2cc(F)c(F)cc2nc1Cl 226 to 229 °C

Annotate the compound CCOC(=O)C=CC(=O)c1ccc(Oc2ccc(Cl)cc2)cc1 with its measured melting point. 57 to 58 °C

Look up and state reported melting point for O=C(OC1COCCC1=O)c1ccccc1 (configuration not stated) 76 to 77 °C

###

experimental.readout: melting point

Solved cases below.
CCCCN(Cc1ccc(-c2ccccc2-c2nnn[nH]2)cc1)c1ncncc1C(=O)OCC(=O)OC: 65 to 80 °C
CC(C)(C)Nc1c([N+](=O)[O-])cc([N+](=O)[O-])c2nc(C(F)(F)F)[nH]c12: 177 to 188 °C

Answer with reported melting point of COc1cc2c(cc1Br)CC=C2CCNC(=O)C(F)(F)F 126 to 129 °C

###

experimental.readout: melting point

Examples with their reported melting point follow.
CC(C)CCC1=Cc2c(F)cc(F)cc2N(C)C1C (stereo not drawn): 154 to 155 °C
CC#CCOCCCCCCCCCCCCOC(=O)C1CC1: 38 to 40 °C
COc1cc(-c2cc(C3CCOC3)no2)cc2oc(=O)c(C)c(C)c12 (stereo not drawn): 122 °C
CCOC(=O)c1ccc(NS(C)(=O)=O)c(Oc2ccc(F)cc2F)c1: 111 to 113 °C

Look up melting point of CCc1cnc(NC(=O)C(c2ccccc2)c2ccccc2)o1 and report it. 148 to 149 °C

Please report melting point for the following compound: CC(C)NC(=O)Nc1ccnc(Cl)c1 142 to 146 °C

Please give measured melting point of the following entry: CCOC(=O)COc1cc2c(c(Cl)c1Cl)C(=O)C(CC)C2 (stereo not drawn) 116 to 118 °C

Give recorded melting point. COc1ccc2ncc3c(c2c1)[C@@H](O)C(OC)(OC)C[C@@H]3C 135 to 136 °C

Supply recorded melting point for O=C(N[C@H]1CCC(=O)N2CCC[C@@H](C(=O)O)N2C1=O)OCC1c2ccccc2-c2ccccc21 here. 120 to 126 °C

Give recorded melting point. COC(=O)CC(=O)/C=C/c1c(-c2ccc(F)cc2OC)n(C(C)C)c(=O)c2ccccc12 164 to 166 °C

Specify reported melting point for the compound shown: C=C1CCC2C3CCC4CC(O)C(OCC)CC4(C)C3C(=NO)CC12C (stereo not drawn) 97 to 99 °C

Identify melting point associated with the compound COC(=O)c1ccc2cc(-c3ccc(OC)c(C45CC6CC(CC(C6)C4)C5)c3)ccc2c1 221 to 227 °C

Report melting point, nothing else, for this compound: OC1CSC(Oc2ccc(-c3ccco3)cc2)C(O)C1O (stereo not drawn) 200 °C

Give reported melting point value for Cc1ccc(S(=O)(=O)c2ccc(C(F)(F)F)cc2NC(=O)N[C@@H](Cc2ccc(NC(=O)c3c(Cl)cccc3Cl)cc2)C(=O)O)cc1 233 °C

Note down melting point recorded for CCCc1ccc(CCCOc2c(C)cc(-c3nnn(C)n3)cc2C)o1 38 to 39 °C

For the compound CCCC(Cc1ccc(OCCN2CCOCC2)cc1)(C(=O)NO)S(=O)(=O)c1ccc(OC)cc1 (stereo not drawn) , report melting point. 101 °C
